- tested.on: HLA-B*0702 (HLA-B7) peptide complexes (Homo sapiens)
- Construct: endogenous in cells; host or cells: JY B-lymphoblastoid line; primary ALL, CLL, HCL, AML samples; bone marrow; healthy B and T cells
- test.summary: HLA-B*0702 phosphopeptides associated with leukemia samples (isolation of HLA-associated peptides)
- experimental.context: CLL4
Non-standard residues stand in square brackets, D forms with d. No end group written: not given here. pS = N[C@@H](COP(=O)(O)O)C(=O)O
A collection of substances and their measured Copies/cell class, CLL4

See these solved cases before continuing.
[[record]]
substance = "308 (RPA[pS]ARAQPGL; listed as Homo sapiens) [compound 308]"
tested_on = "HLA-B*0702 (HLA-B7) peptide complexes (Homo sapiens)"
property_measured = "Copies/cell class, CLL4"
meas_value = "2 (2 indicates 1-5 copies/cell)"

[[record]]
substance = "388 (TPR[pS]PPLGLI; listed as Homo sapiens) [compound 388]"
tested_on = "HLA-B*0702 (HLA-B7) peptide complexes (Homo sapiens)"
property_measured = "Copies/cell class, CLL4"
meas_value = "2 (2 indicates 1-5 copies/cell)"

[[record]]
substance = "319 (RPN[pS]PSPTAL; listed as Homo sapiens) [compound 319]"
tested_on = "HLA-B*0702 (HLA-B7) peptide complexes (Homo sapiens)"
property_measured = "Copies/cell class, CLL4"
meas_value = "2 (2 indicates 1-5 copies/cell)"


Consider now this further substance.
Dear colleague, I am looking for the recorded Copies/cell class, CLL4 of the following substance: 344 (RP[pS]SPALYF; listed as Homo sapiens) [compound 344]
1 (1 indicates <1 copy/cell)

---

- tested.on: HLA-A*0201 (HLA-A2) peptide complexes (Homo sapiens, UniProt P04439, D140Y/D185E/D98H/E176V/E277Q/G131W/G231S/I119V/I121R/I166T/I218V/L300P/L318F/N151K/N90K/P208A/P217A/Q86G/Q94H/R138H/R169H/T345S)
- Construct: endogenous in cells; host or cells: JY B-lymphoblastoid line; primary CLL, MCL, AML, ALL samples; healthy splenic T and B cells
- test.summary: HLA-A*0201 phosphopeptides associated with leukemia samples (isolation of HLA-associated peptides)
- experimental.context: healthy B cells
property.measured: Copies/cell class, B Cell
Quick one: just the number, no unit, thanks!

Dear colleague, I am looking for the recorded Copies/cell class, B Cell of the following substance: 457 (RTFSPTYGL; SITE (1)..(9): One or more of the listed amino acids can be phosphorylated as set forth in the Tables; listed as Homo sapiens) [compound 457]
0

---

- tested.on: HLA-B*0702 (Homo sapiens, UniProt P01889)
- Construct: endogenous in cells; host or cells: melanoma and/or leukemia cells
- test.summary: Phosphopeptides presented in association with class I molecules (HLA-B*0702) on cancer cells: melanoma and/or leukemia
- Parameters: key: Melanoma (M); Leukemia (L); L/M: Melanoma (M) and/or Leukemia (L)
- experimental.context: cancer type on which the HLA-B*0702 phosphopeptide is presented
Non-standard residues stand in square brackets, D forms with d. No end group written: not given here. pT = C[C@@H](OP(=O)(O)O)[C@H](N)C(=O)O; pS = N[C@@H](COP(=O)(O)O)C(=O)O
property.measured: L/M

See these solved cases before continuing.
[[record]]
substance = "289 (KPQTRGK[pT]F; listed as Homo sapiens) [compound 289]"
property_measured = "L/M"
meas_value = "L"

[[record]]
substance = "363 (RTE[pS]DSGLKK; listed as Homo sapiens) [compound 363]"
property_measured = "L/M"
meas_value = "L"

[[record]]
substance = "351 (RPY[pS]PPFFSL; listed as Homo sapiens) [compound 351]"
property_measured = "L/M"
meas_value = "L"

[[record]]
substance = "356 (RRS[pS]LDAEIDSL; listed as Homo sapiens) [compound 356]"
property_measured = "L/M"
meas_value = "L"


Consider now this further substance.
Dear colleague, I am looking for the recorded L/M of the following substance: 386 (TPI[pS]PGRASGM; listed as Homo sapiens) [compound 386]
L

---

- tested.on: HLA-B*0702 (Homo sapiens)
- Construct: endogenous in cells; host or cells: melanoma and/or leukemia cells
- test.summary: Phosphopeptides presented in association with class I molecules (HLA-B*0702) on cancer cells: melanoma and/or leukemia
- Parameters: key: Melanoma (M); Leukemia (L); L/M: Melanoma (M) and/or Leukemia (L)
- experimental.context: cancer type on which the HLA-B*0702 phosphopeptide is presented
Non-standard residues stand in square brackets, D forms with d. No end group written: not given here. pS = N[C@@H](COP(=O)(O)O)C(=O)O
property.measured: L/M

[[record]]
substance = "268 (APR[pS]PPPSRP; listed as Homo sapiens) [compound 268]"
property_measured = "L/M"
meas_value = "M"

[[record]]
substance = "272 (FRR[pS]PTKSSL; listed as Homo sapiens) [compound 272]"
property_measured = "L/M"
meas_value = "L"

[[record]]
substance = "302 (QPR[pS]PGPDYSL; listed as Homo sapiens) [compound 302]"
property_measured = "L/M"
meas_value = "L"

[[record]]
substance = "335 (RPR[pS]PPPRAP; listed as Homo sapiens) [compound 335]"
property_measured = "L/M"
meas_value = "M"


Consider now this further substance.
Dear colleague, I am looking for the recorded L/M of the following substance: 382 (SPS[pS]PSVRRQL; listed as Homo sapiens) [compound 382]
L

---

- tested.on: HLA-B*0702 (Homo sapiens, UniProt P01889)
- Construct: endogenous in cells; host or cells: melanoma and/or leukemia cells
- test.summary: Phosphopeptides presented in association with class I molecules (HLA-B*0702) on cancer cells: melanoma and/or leukemia
- Set-up: key: Melanoma (M); Leukemia (L); L/M: Melanoma (M) and/or Leukemia (L)
- experimental.context: cancer type on which the HLA-B*0702 phosphopeptide is presented
Non-standard residues stand in square brackets, D forms with d. No end group written: not given here. pT = C[C@@H](OP(=O)(O)O)[C@H](N)C(=O)O; pS = N[C@@H](COP(=O)(O)O)C(=O)O
property.measured: L/M

[[record]]
substance = "380 (SPRTPV[pS]PVKF; listed as Homo sapiens) [compound 380]"
meas_value = "M"

[[record]]
substance = "385 (TPAQPQRR[pS]L; listed as Homo sapiens) [compound 385]"
meas_value = "L"

[[record]]
substance = "334 (RPR[pS]PGSNSKV; listed as Homo sapiens) [compound 334]"
meas_value = "L"

[[record]]
substance = "384 (SPVVHQ[pS]L; listed as Homo sapiens) [compound 384]"
meas_value = "M"

[[record]]
substance = "332 (RPRSL[pS]SPTVTL; listed as Homo sapiens) [compound 332]"
meas_value = "M"


# value lookup — system HLA-B*0702 (Homo sapiens, UniProt P01889), readout L/M, item 320 (RPPPPPD[pT]PP; listed as Homo sapiens) [compound 320]
L

Would you mind doing 379 (SPR[pS]PSTTYL; listed as Homo sapiens) [compound 379] as well?
L

Would you mind doing 345 (RPS[pT]PKSDSEL; listed as Homo sapiens) [compound 345] as well?
L

Would you mind doing 277 (GPRSASLL[pS]L; listed as Homo sapiens) [compound 277] as well?
M

Would you mind doing 391 (YQR[pS]FDEVEGV; listed as Homo sapiens) [compound 391] as well?
L

---

A collection of substances and their measured Copies/cell class, HCL1
- tested.on: HLA-B*0702 (HLA-B7) peptide complexes (Homo sapiens)
- Construct: endogenous in cells; host or cells: JY B-lymphoblastoid line; primary ALL, CLL, HCL, AML samples; bone marrow; healthy B and T cells
- test.summary: HLA-B*0702 phosphopeptides associated with leukemia samples (isolation of HLA-associated peptides)
- experimental.context: hairy cell leukemia sample HCL1
Non-standard residues stand in square brackets, D forms with d. No end group written: not given here. pS = N[C@@H](COP(=O)(O)O)C(=O)O

See these solved cases before continuing.
[[record]]
substance = "319 (RPN[pS]PSPTAL; listed as Homo sapiens) [compound 319]"
meas_value = "1 (1 indicates <1 copy/cell)"

[[record]]
substance = "322 (RPP[pS]SEFLDL; listed as Homo sapiens) [compound 322]"
meas_value = "1 (1 indicates <1 copy/cell)"


Dear colleague, I am looking for the recorded Copies/cell class, HCL1 of the following substance: 288 (KPPYRSH[pS]L; listed as Homo sapiens) [compound 288]
2 (2 indicates 1-5 copies/cell)

---

A collection of substances and their measured Copies/cell class, ALL1
- tested.on: HLA-B*0702 (HLA-B7) peptide complexes (Homo sapiens, UniProt P01889)
- Construct: endogenous in cells; host or cells: JY B-lymphoblastoid line; primary ALL, CLL, HCL, AML samples; bone marrow; healthy B and T cells
- test.summary: HLA-B*0702 phosphopeptides associated with leukemia samples (isolation of HLA-associated peptides)
- experimental.context: acute lymphoblastic leukemia sample ALL1
Non-standard residues stand in square brackets, D forms with d. No end group written: not given here. pS = N[C@@H](COP(=O)(O)O)C(=O)O

See these solved cases before continuing.
[[record]]
substance = "312 (RPD[pS]RLGKTEL; listed as Homo sapiens) [compound 312]"
tested_on = "HLA-B*0702 (HLA-B7) peptide complexes (Homo sapiens, UniProt P01889)"
property_measured = "Copies/cell class, ALL1"
meas_value = "2 (2 indicates 1-5 copies/cell)"

[[record]]
substance = "351 (RPY[pS]PPFFSL; listed as Homo sapiens) [compound 351]"
tested_on = "HLA-B*0702 (HLA-B7) peptide complexes (Homo sapiens, UniProt P01889)"
property_measured = "Copies/cell class, ALL1"
meas_value = "2 (2 indicates 1-5 copies/cell)"

[[record]]
substance = "308 (RPA[pS]ARAQPGL; listed as Homo sapiens) [compound 308]"
tested_on = "HLA-B*0702 (HLA-B7) peptide complexes (Homo sapiens, UniProt P01889)"
property_measured = "Copies/cell class, ALL1"
meas_value = "1 (1 indicates <1 copy/cell)"

[[record]]
substance = "344 (RP[pS]SPALYF; listed as Homo sapiens) [compound 344]"
tested_on = "HLA-B*0702 (HLA-B7) peptide complexes (Homo sapiens, UniProt P01889)"
property_measured = "Copies/cell class, ALL1"
meas_value = "1 (1 indicates <1 copy/cell)"


Consider now this further substance.
# value lookup — system HLA-B*0702 (HLA-B7) peptide complexes (Homo sapiens, UniProt P01889), readout Copies/cell class, ALL1, item 386 (TPI[pS]PGRASGM; listed as Homo sapiens) [compound 386]
1 (1 indicates <1 copy/cell)
